# tested_target: porcine pancreatic elastase (Sus scrofa, UniProt P00772)
# Construct: purchased Sigma, USA
# Sequence (P00772 27-266): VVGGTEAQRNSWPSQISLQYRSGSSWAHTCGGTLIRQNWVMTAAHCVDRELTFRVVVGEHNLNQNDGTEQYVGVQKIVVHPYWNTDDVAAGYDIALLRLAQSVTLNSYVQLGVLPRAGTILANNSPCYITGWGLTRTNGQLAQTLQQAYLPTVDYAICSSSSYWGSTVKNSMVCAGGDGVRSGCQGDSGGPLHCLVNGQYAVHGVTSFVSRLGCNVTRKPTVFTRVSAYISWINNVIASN
# assay_comment: Inhibition of porcine pancreatic elastase (hydrolysis of MeOSuc-AAA-pNA)
# Format: biochemical
# condition_label: ratio of PPE IC50 to hNE IC50
Where a SMILES comes first, the peptide text is derived from it. [ ]: non-standard residue; d: D form. Gly(octyl) = CCCCCCCC[C@H](N)C(=O)O; β3hK = NCCCC[C@H](N)CC(=O)O
assay_endpoint: hNE/PPE selectivity
Format: numeric value only, no unit, no commentary.

# compound CCCCCCCC[C@@H]1NC(=O)[C@@H]2CCCN2C(=O)[C@H]2CCCN2C(=O)[C@H]([C@@H](C)O)NC(=O)C[C@H](CCCCN)NC(=O)[C@H](CCC(N)=O)NC(=O)[C@@H]2CCCN2C(=O)[C@@H]2CCCN2C(=O)[C@H]([C@@H](C)CC)NC(=O)[C@H](CO)NC(=O)[C@H](C)NC(=O)[C@H]([C@@H](C)O)NC(=O)[C@H](CCC(=O)O)NC1=O [Example 37] (cyclo([Gly(octyl)]ETASIPPQ[β3hK]T[dP]P)) ; its hNE/PPE selectivity = 212

Values were extracted from patent US10273267B2.
